# targetOrSystem: Human mTOR (Homo sapiens, UniProt P42345)
# protocolDescription: mTOR kinase assay (DELFIA format, purified enzyme)
# Assay type: biochemical
# Parameters: FLAG
# conditionsUsed: read-out: TOR Kinase IC50
recordedEndpoint: IC50 (nM)

Worked examples follow.
{"columns": ["compound", "quantitativeResult"],
 "data": [
  ["CCCC(=O)Nc1cccc(-c2nc(N3CCOCC3)c3ccc4c(ccn4C)c3n2)c1", 1900],
  ["CS(=O)(=O)n1ccc2c3nc(-c4cccc(CO)c4)nc(N4CCOCC4)c3ccc21", 545],
  ["CCN1CCC(S(=O)(=O)n2ccc3c4nc(-c5ccc(NC(=O)Nc6ccncc6)cc5)nc(N5CCOCC5)c4ccc32)CC1", 44],
  ["Cn1ccc2c3nc(-c4cccc(C=O)c4)nc(N4CCOCC4)c3ccc21", 320],
  ["Cn1ccc2c3nc(-c4ccc(NS(=O)(=O)c5ccccc5)cc4)nc(N4CCOCC4)c3ccc21", 5300]
]}

I: Cn1ccc2c3nc(-c4ccc(NC(=O)Nc5ccccc5)cc4)nc(N4CCOCC4)c3ccc21
II: Nc1ncc(-c2nc(N3CCOCC3)c3ccc4c(ccn4S(=O)(=O)c4ccccc4)c3n2)cn1
III: C=CC(O)c1cccc(-c2nc(N3CCOCC3)c3ccc4c(ccn4C)c3n2)c1 (stereo not shown)
IV: Cn1ccc2c3nc(-c4cncc(O)c4)nc(N4CCOCC4)c3ccc21
Query :: Put the items in sequence by IC50, from largest down. I'd appreciate it if you listed the labels in the requested order.
Result :: III, II, IV, I

I: Cn1ccc2c3nc(-c4ccc(NC(=O)NCCF)cc4)nc(N4CCOCC4)c3ccc21
II: COc1ccc(-c2nc(N3CCOCC3)c3ccc4c(ccn4C)c3n2)cn1
III: CCCNC(=O)Nc1ccc(-c2nc(N3CCOCC3)c3ccc4c(ccn4S(C)(=O)=O)c3n2)cc1
IV: Cn1ccc2c3nc(-c4cccc5[nH]ncc45)nc(N4CCOCC4)c3ccc21
V: CS(=O)(=O)n1ccc2c3nc(-c4cncc(O)c4)nc(N4CCOCC4)c3ccc21
Query :: Please list these compounds in decreasing order of IC50. Write the labels, ordered according to the request.
Result :: II, I, IV, V, III

A: CC(=O)Nc1ccc(-c2nc(N3CCOCC3)c3ccc4c(ccn4CCN(C)C)c3n2)cc1
B: OCc1cccc(-c2nc(N3CCOCC3)c3ccc4c(ccn4Cc4ccccc4)c3n2)c1
C: CCCC(=O)Nc1ccc(-c2nc(N3CCOCC3)c3ccc4c(ccn4CCN(C)C)c3n2)cc1
Query :: List these items ordered by IC50, big to small. // respond by listing labels in the order requested
Result :: C, A, B

----------
# targetOrSystem: UniProt P42336
recordedEndpoint: IC50 (nM)

Example molecules with recorded IC50:
{"columns": ["molecule", "outputUnit", "IC50"],
 "data": [
  ["Cn1ccc2c3nc(-c4ccc(NC(=O)NCc5ccccn5)cc4)nc(N4CCOCC4)c3ccc21", "nM", 2520],
  ["CC(C)CC(O)c1cccc(-c2nc(N3CCOCC3)c3ccc4c(ccn4C)c3n2)c1 (centres unmarked)", "nM", 2510],
  ["CN(C)S(=O)(=O)Nc1cccc(-c2nc(N3CCOCC3)c3ccc4c(ccn4C)c3n2)c1", "nM", 4340],
  ["O=S(=O)(c1ccccc1)n1ccc2c3nc(-c4cccc(CO)c4)nc(N4CCOCC4)c3ccc21", "nM", 168]
]}

a: CN(C)CCNC(=O)Nc1ccc(-c2nc(N3CCOCC3)c3ccc4c(ccn4C)c3n2)cc1
b: CC(=O)NCc1cccc(-c2nc(N3CCOCC3)c3ccc4c(ccn4C)c3n2)c1
Query :: Of a versus b , which is the one with smaller reported IC50? Returns: label corresponding to the selected item.
Result :: a

a: O=C(Nc1ccncc1)Nc1ccc(-c2nc(N3CCOCC3)c3ccc4c(ccn4S(=O)(=O)C4CCN(C(=O)OCc5ccccc5)CC4)c3n2)cc1
b: O=S(=O)(c1ccccc1)n1ccc2c3nc(-c4cccc5[nH]ncc45)nc(N4CCOCC4)c3ccc21
c: Nc1ncc(-c2nc(N3CCOCC3)c3ccc4[nH]ccc4c3n2)cn1
d: CN1CCN(C(=O)Nc2ccc(-c3nc(N4CCOCC4)c4ccc5c(ccn5C)c4n3)cc2)CC1
Query :: Please give the order of these molecules when sorted by IC50, largest value leading. Thanks in advance for listing the labels in the requested order.
Result :: d, b, a, c
(d: 7630 nM, b: 4010 nM, a: 384 nM, c: 102 nM)

----------
# targetOrSystem: human SMG-1 (hSMG-1) (Homo sapiens, UniProt Q96Q15)
# protocolDescription: hSMG-1 kinase assay (DELFIA)
# conditionsUsed: read-out: hSMG1 IC50
recordedEndpoint: IC50

{"columns": ["compound", "result"],
 "data": [
  ["Cn1ccc2c3nc(-c4ccc(NC(=O)NC5CCCCC5)cc4)nc(N4CCOCC4)c3ccc21", "> 20 µM"],
  ["COC(=O)Nc1ccc(-c2nc(N3CCOCC3)c3ccc4c(ccn4CCN(C)C)c3n2)cc1", "> 20 µM"],
  ["Cn1ccc2c3nc(-c4ccc(NC(=O)NCC5CCCO5)cc4)nc(N4CCOCC4)c3ccc21 (stereo not shown)", "> 17 µM"]
]}

Next, consider the following compound.
Query :: Given CC(=O)Nc1ccc(-c2nc(N3CCOCC3)c3ccc4c(ccn4CCN(C)C)c3n2)cc1 , state its recorded IC50.
Result :: > 20 µM

----------
# targetOrSystem: PI3K-gamma (Homo sapiens)
# Sequence (P48736 whole entry, species assumed): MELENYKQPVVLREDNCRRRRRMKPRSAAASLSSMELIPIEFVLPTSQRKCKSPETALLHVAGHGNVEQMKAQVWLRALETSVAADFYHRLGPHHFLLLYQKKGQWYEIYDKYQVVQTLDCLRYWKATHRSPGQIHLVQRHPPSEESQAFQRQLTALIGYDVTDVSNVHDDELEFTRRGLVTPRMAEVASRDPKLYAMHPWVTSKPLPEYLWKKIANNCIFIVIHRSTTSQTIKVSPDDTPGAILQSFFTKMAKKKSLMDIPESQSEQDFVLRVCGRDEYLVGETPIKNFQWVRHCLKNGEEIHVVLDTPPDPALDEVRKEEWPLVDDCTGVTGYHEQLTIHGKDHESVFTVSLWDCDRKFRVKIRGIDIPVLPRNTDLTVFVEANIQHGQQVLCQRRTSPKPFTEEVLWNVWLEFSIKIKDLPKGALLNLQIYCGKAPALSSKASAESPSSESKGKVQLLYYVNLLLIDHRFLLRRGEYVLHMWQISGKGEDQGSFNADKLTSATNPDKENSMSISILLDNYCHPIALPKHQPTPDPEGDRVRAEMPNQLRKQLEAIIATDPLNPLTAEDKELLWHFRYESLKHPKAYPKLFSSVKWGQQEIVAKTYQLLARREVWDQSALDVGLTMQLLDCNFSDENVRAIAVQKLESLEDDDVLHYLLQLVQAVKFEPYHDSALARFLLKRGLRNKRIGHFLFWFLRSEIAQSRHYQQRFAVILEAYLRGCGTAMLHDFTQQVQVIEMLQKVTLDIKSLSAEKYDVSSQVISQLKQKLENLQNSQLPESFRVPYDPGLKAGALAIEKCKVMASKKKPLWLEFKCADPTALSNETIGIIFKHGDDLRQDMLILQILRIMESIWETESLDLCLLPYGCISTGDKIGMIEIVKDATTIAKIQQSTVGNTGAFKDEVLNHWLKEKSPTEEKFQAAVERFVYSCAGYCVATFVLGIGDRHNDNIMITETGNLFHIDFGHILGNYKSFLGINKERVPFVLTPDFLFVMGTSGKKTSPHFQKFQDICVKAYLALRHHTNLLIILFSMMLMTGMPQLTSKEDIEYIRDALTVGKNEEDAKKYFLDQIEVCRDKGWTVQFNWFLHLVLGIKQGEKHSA
pIC50: −log10 of the molar value.
Listed below: pIC50 values for each entry.

Query :: Given the molecule CC(O)c1cccc(-c2nc(N3CCOCC3)c3ccc4c(ccn4C)c3n2)c1 (stereo not drawn) , what is its reported pIC50?
Result :: < 5.00

Query :: Ok, now C=CC(O)c1cccc(-c2nc(N3CCOCC3)c3ccc4c(ccn4C)c3n2)c1 (stereo not drawn)
Result :: < 5.00

Query :: Entry CC(=O)Nc1ccc(-c2nc(N3CCOCC3)c3ccc4c(ccn4C)c3n2)cc1 please
Result :: < 5.00

----------
# targetOrSystem: UniProt P42345
# protocolDescription: mTOR kinase assay (DELFIA format, purified enzyme)
# Format: biochemical
# Parameters: FLAG
# conditionsUsed: read-out: TOR Kinase IC50
pIC50: −log10 of the molar value.
recordedEndpoint: pIC50

Worked examples, 5 molecules total:
{"columns": ["molecule", "pIC50"],
 "data": [
  ["Cn1ccc2c3nc(-c4ccc(NC(=O)c5ccc(F)cc5)cc4)nc(N4CCOCC4)c3ccc21", 5.90],
  ["CN(C)CCn1ccc2c3nc(-c4cccc(CO)c4)nc(N4CCOCC4)c3ccc21", 5.04],
  ["COCCNC(=O)Nc1ccc(-c2nc(N3CCOCC3)c3ccc4c(ccn4C)c3n2)cc1", 5.74],
  ["Cn1ccc2c3nc(-c4ccc(NC(=O)c5ccncc5)cc4)nc(N4CCOCC4)c3ccc21", 5.84],
  ["Cn1ccc2c3nc(-c4cccc(NC(=O)Nc5cccnc5)c4)nc(N4CCOCC4)c3ccc21", 5.59]
]}

1: C=CCC(O)c1cccc(-c2nc(N3CCOCC3)c3ccc4c(ccn4C)c3n2)c1 (stereo not drawn)
2: Cn1ccc2c3nc(-c4ccc(NC(=O)NCC5CC5)cc4)nc(N4CCOCC4)c3ccc21
Query :: Field: lower pIC50 | Options: 1 / 2 Bench note: the answer is the label of the chosen record.
Result :: 1
(1: 5.55, 2: 6.30)

----------
# targetOrSystem: PI3K-alpha (Homo sapiens, UniProt P42336)
# Sequence (P42336 whole entry, species assumed): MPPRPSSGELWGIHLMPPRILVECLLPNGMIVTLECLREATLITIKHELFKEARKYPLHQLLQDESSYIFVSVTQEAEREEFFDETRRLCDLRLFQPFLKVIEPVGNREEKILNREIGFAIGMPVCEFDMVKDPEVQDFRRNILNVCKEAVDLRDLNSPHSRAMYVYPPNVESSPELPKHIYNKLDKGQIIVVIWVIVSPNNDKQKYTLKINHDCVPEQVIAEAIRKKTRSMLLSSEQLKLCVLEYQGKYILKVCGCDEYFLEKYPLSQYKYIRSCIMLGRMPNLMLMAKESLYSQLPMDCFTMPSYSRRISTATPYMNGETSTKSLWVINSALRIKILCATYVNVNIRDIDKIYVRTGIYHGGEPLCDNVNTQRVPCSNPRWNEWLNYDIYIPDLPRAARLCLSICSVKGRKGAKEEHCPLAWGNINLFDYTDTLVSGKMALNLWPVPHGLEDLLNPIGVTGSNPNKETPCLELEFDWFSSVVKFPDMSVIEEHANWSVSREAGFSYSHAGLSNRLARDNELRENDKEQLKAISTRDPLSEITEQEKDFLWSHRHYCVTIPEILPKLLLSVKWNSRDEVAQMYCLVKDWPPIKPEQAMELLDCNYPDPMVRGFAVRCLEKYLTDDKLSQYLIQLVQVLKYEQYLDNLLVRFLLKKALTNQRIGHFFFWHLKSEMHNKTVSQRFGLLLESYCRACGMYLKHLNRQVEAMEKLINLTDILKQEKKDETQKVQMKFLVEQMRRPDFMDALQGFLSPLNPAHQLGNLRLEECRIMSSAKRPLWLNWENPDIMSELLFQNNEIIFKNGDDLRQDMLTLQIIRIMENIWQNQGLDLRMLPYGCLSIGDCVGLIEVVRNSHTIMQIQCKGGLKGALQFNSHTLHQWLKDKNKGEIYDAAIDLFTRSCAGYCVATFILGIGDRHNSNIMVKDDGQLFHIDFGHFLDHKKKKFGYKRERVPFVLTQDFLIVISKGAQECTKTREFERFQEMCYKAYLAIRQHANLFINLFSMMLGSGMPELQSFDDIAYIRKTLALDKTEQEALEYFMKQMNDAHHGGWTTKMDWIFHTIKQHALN
# Sequence (P27986 whole entry partner, species assumed): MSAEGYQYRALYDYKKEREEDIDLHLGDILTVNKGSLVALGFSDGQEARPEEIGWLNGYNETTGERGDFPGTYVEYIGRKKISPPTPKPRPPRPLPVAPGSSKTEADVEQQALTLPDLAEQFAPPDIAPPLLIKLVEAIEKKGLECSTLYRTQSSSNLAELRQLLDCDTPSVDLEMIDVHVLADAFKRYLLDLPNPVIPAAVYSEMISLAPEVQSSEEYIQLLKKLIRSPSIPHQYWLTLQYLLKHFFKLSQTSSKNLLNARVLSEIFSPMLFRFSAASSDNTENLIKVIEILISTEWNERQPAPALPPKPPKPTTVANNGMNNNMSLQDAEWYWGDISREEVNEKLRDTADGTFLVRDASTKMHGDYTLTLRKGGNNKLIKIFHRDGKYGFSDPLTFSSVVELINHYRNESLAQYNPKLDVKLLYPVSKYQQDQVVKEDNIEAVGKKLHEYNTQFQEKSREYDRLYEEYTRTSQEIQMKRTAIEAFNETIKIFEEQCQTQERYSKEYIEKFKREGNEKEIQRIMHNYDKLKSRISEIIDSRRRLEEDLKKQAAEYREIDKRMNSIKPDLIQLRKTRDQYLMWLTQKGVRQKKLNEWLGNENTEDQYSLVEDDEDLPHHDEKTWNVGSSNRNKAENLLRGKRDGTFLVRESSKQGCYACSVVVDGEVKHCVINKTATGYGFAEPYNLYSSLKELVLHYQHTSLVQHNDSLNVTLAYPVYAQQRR
# protocolDescription: PI3K-alpha fluorescence polarization assay
# Format: biochemical
# conditionsUsed: read-out: PI3 Kinase α IC50
recordedEndpoint: IC50 (nM)

{"columns": ["compound", "outputUnit", "quantitativeResult"],
 "data": [
  ["COCOc1cncc(-c2nc(N3CCOCC3)c3ccc4c(ccn4C)c3n2)c1 [Example 77]", "nM", 451],
  ["Cn1ccc2c3nc(-c4ccc(NC(=O)NCCCn5ccnc5)cc4)nc(N4CCOCC4)c3ccc21 [Example 8]", "nM", 431]
]}

----------
# targetOrSystem: Human mTOR (Homo sapiens, UniProt P42345)
# protocolDescription: mTOR kinase assay (DELFIA format, purified enzyme)
# Assay type: biochemical
# Parameters: FLAG
# conditionsUsed: read-out: TOR Kinase IC50
pIC50: −log10 of the molar value.
recordedEndpoint: pIC50

{"columns": ["molecule", "pIC50"],
 "data": [
  ["Cn1ccc2c3nc(-c4ccc(NC(=O)c5cccnc5)cc4)nc(N4CCOCC4)c3ccc21 [Example 17]", 5.85],
  ["O=C(OCc1ccccc1)N1CCC(S(=O)(=O)n2ccc3c4nc(-c5cccc(O)c5)nc(N5CCOCC5)c4ccc32)CC1 [Example 66]", 5.65]
]}

P: Cn1ccc2c3nc(-c4ccc(NC(=O)NCc5ccccn5)cc4)nc(N4CCOCC4)c3ccc21 [Example 15]
Q: CCCNC(=O)Nc1ccc(-c2nc(N3CCOCC3)c3ccc4c(ccn4C)c3n2)cc1 [Example 54]
Query :: From the items above, decide which of P and Q has the lower pIC50 reading. Choose, then provide that item's label.
Result :: P
(P: 5.67, Q: 7.68)
